# test-name: A CellTox Green Cytotoxicity Assay to monitor cytotoxicity in HEK293 cells - 40 hour (AID 1224871); note: nearly all actives have a fitted effect of over 45% in size
# condition-description: CellTox Green fluorescence; series mostly up to 76.8 µM
Inconclusive results are not listed. Calls of active or inactive are those of the source. Calls come from the whole dose curve; as a rule, active = well fitted activation curve with a large enough effect in the repeat runs; inconclusive = weak or mixed curves; inactive = flat fitted curve, though single readings scatter.
reported-property: outcome

Input CC12CC1(C)C(=O)N(c1cc(Cl)cc(Cl)c1)C2=O (stereo not drawn) . Output outcome: inactive

Input CCOc1ccc(N)cc1 . Output outcome: inactive

Input Cc1cccc(N)c1 . Output outcome: inactive

====

# target-or-system: Nuclear receptor subfamily 1 group I member 2 (Homo sapiens)
# test-name: Human pregnane X receptor (PXR) small molecule agonists, qHTS assay (AID 1346982); note: nearly all actives have a fitted effect of over 35% in size
# condition-description: PXR-Luc HepG2, CYP3A4 luciferase reporter, 24 h; series mostly up to 92.4 µM
Inconclusive results are not listed. Calls of active or inactive are those of the source. Calls come from the whole dose curve; as a rule, active = well fitted activation curve with a large enough effect in the repeat runs; inconclusive = weak or mixed curves; inactive = no such curve, though single readings can be large or run the other way.
Tick one outcome: active, inactive

Look over these answered cases.
Input: Test call, this compound: O=[N+]([O-])c1cc([As](=O)(O)O)ccc1O
Output: inactive

Input: Test call, this compound: OCC(O)CCl (stereo unspecified)
Output: inactive

Input: Test call, this compound: CSc1nnc(C(C)(C)C)c(=O)n1N
Output: inactive

Input: Test call, this compound: C=C(C)C(=O)OCC(CC)CCCC (stereo unspecified)
Output: inactive

Input: Test call, this compound: C=CC(=O)OCCCCCC(C)C
Output: inactive

More entries:
Input: Test call, this compound: Clc1cnc(Oc2ccc(Oc3ncc(Cl)cc3Cl)cc2)c(Cl)c1
Output: inactive

Input: Test call, this compound: CN1C(=O)CCS(=O)(=O)C1c1ccc(Cl)cc1 (stereo unspecified)
Output: inactive

Input: Test call, this compound: O=C(O)COc1ccccc1
Output: inactive

Input: Test call, this compound: Nc1ccc([As](=O)(O)O)cc1
Output: inactive

====

# test-name: qHTS assay for small molecule agonists of the antioxidant response element (ARE) signaling pathway (AID 743202)
# condition-description: HepG2 ARE-bla reporter, beta-lactamase FRET, 16 h; series mostly up to 73.3 µM
Results filed as inconclusive are left out. The source made the active and inactive calls. Calls come from the whole dose curve; as a rule, active = well fitted activation curve with a large enough effect in the signal ratio in the repeat runs (not every such curve was filed as active); inconclusive = weak or mixed curves, or effect the other way; inactive = no such curve, though single readings can be large or run the other way; the % refers to the signal ratio.
Tick one outcome: active, inactive

Look over these answered cases.
Input: Test call, this compound: CCCCCCCCCCCCCCCCCC(=O)O
Output: inactive

Input: Test call, this compound: Oc1ccc(Cl)cc1
Output: inactive

Input: Test call, this compound: COc1nc(NC(C)C)nc(NC(C)C)n1
Output: inactive

More entries:
Input: Test call, this compound: CN(C)C(=O)Nc1cccc(C(F)(F)F)c1
Output: inactive

Input: Test call, this compound: c1ccc2c(c1)CCCC2
Output: inactive

Input: Test call, this compound: Nc1cccc(Cl)c1
Output: inactive

Input: Test call, this compound: O=C(O)C(Br)Br
Output: active

Input: Test call, this compound: CN(C)CCC#N
Output: inactive

Input: Test call, this compound: O=C/C=C/c1ccccc1
Output: inactive

Input: Test call, this compound: ClC(Cl)c1ccccc1
Output: inactive

Input: Test call, this compound: O=[N+]([O-])c1cc([As](=O)(O)O)ccc1O
Output: inactive

Input: Test call, this compound: CCCCC(CC)C(=O)Cl (centres undefined)
Output: inactive

Input: Test call, this compound: COP(=S)(OC)Oc1ccc(SC)c(C)c1
Output: inactive

Input: Test call, this compound: CC(C)c1cccc(C(C)C)c1O
Output: inactive
